# METHOD: change in splice reporter luminescence, either direction, cell-based, HEK293, spliceosome inhibition project, primary screen (AID 1101);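 also: HEK293 cells carrying a splicing-competent luciferase reporter gene; test concentration not given here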
# CONDITION SUMMARY: HEK293 splicing luciferase reporter, 24 h, higher = more signal, called active from +8 up or from −8 down
# Lookup of reported z-score keyed by entry
Note: the reply should be a number with no unit written.

Reference set, count: 3
- MOLECULE: "C=CCC(OC(C)=O)[C@@H]1[C@@H](N(Cc2cc3ccccc3o2)C(=O)Cc2ccc(OC)cc2)c2cc(OCCCO)ccc2N1C(=O)c1ccc(-c2ccccc2)cc1 (some centres undefined)"
  z-score: -0.354
- MOLECULE: "CN(C)CCCCNC(=O)[C@H]1C[C@H]2C(=O)N[C@@H](CCCC[N+](C)(C)C)C(=O)N2[C@H]1c1cccc(OCCO)c1"
  z-score: -0.698
- MOLECULE: "CN1C(=O)C2C=CC(C(O)c3cccc4ccccc34)N(NC(=O)OC(C)(C)C)C2C1=O (centres undefined)"
  z-score: 2.35

Attention now shifts to the item below.
Given COCCCNC(=O)[C@@]1(C)c2ccccc2C(=O)N(c2ccc(C)cn2)[C@H]1c1ccc(CO)cc1 , respond with its z-score.
0.532

Every entry's value here was drawn from PubChem BioAssay.
